# Assayed System: T1, Cynomolgus CD3εδ Fc heterodimer (Cy CD3ε Fc / CD3δ Fc-HIS) (cynomolgus, UniProt Q95LI8 22-100)
# T1 chain 1: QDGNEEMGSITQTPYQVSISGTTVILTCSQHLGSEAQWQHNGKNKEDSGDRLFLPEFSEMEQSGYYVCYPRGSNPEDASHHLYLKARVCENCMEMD
# T1 chain 2: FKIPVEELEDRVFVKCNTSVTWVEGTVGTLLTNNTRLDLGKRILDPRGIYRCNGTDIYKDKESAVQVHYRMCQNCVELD
# Assay Details: BLI (Octet), IgG on AHC sensor, pH 7.4
Each entry below carries its reported pKd.
# pKd is unitless: minus log10 of the molar concentration; print number only

Binder	pKd
SAD10319_P02_E04 (ADI-57311) (antibody, V domains shown, IgG; also called Ab252) VH: QVQLVQSGAEVKKPGASVKVSCKASGYTFESYYMHWVRQAPGQRLERMGSIVAGTGATKYSQKFQGRVTITRDTSASTAYMELSSLRSEDTAVYYCARDHYGRYFYDVWGQGTPVTVSS VL: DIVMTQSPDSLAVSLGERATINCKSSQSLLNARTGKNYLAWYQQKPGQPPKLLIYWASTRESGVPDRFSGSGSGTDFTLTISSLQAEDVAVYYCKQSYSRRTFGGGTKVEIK	7.19

Lookup: Value lookup for pKd; key = LAD9955_P01_G02 (ADI-57439) (antibody, V domains shown, IgG; also called Ab170) VH: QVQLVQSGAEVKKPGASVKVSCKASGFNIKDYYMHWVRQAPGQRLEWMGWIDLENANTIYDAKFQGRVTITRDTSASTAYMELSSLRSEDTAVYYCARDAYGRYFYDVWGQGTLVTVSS VL: DIVMTQSPDSLAVSLGERATINCKSSQSLLHARTGKNHLAWYQQKPGQPPKLLIYWASTRESGVPDRFSGSGSGTDFTLTISSLQAEDVAVYYCKQSYSRRTFGGGTKVEIK
Found: 6.90

Lookup: Value lookup for pKd; key = SAD10320_P02_F06 (ADI-57370) (antibody, V domains shown, IgG; also called Ab87) VH: QVQLVQSGAEVKKPGASVKVSCKASGFNIKDYYMHWVRQAPGQRLAWMGWIDLENANTIYDAKFQGRVTITRDTSASTAYMELSSLRSEDTAVYYCARDAYGRFHYDVWGQGTLVTVSS VL: DIVMTQSPDSLAVSLGERATINCKSSQSLLNARPGKNYLAWYQQKPGQPPKLLIYWASTRESGVPDRFSGSGSGTDFTLTISSLQAEDVAVYYCKQSYSRRTFGGGTKVEIK
Found: 6.85

Lookup: Value lookup for pKd; key = SAD10319_P02_E06 (ADI-57323) (antibody, V domains shown, IgG; also called Ab12) VH: QVQLVQSGAEVKKPGASVKVSCKASGYTFADYAMHWVRQAPGQRLAWMGWINPHTGATFYSQKFQGRVTITRDTSASTAYMELSSLRSEDTAVYYCARDAYGRYFYDHWGQGTLVTVSS VL: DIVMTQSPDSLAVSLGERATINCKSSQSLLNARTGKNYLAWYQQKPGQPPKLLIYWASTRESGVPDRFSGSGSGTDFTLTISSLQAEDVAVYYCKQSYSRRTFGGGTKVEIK
Found: 7.22

Numbers sourced from patent US20220380463A1.
